Test: BSK_3C_uPAR: BioMAP Diversity Plus: 3C Assay for Urokinase-type plasminogen activator receptor (uPAR) Biomarker Activity (AID 2282998)
Details: BioMAP 3C HUVEC, uPAR biomarker ELISA; actives raise or lower the signal
Experimental: BSK_3C is a cell-based, multiplexed-readout assay that uses umbilical vein endothelium, a human vascular primary cell, with measurements taken at 24 hours after chemical dosing in a 96-well plate.BSK_3CAR is an assay component measured in the BSK_3C assay. It measures uPAR antibody related to regulation of gene expression using ELISA technology.Data from the assay component BSK_3CAR was analyzed into 1 assay endpoint. […]
Calls of active or inactive are those of the source. How the source made its calls: active means hit-call score of the fitted dose curve at least 0.9, where 1 is the maximum; inactive means score below 0.9.
Valid outcomes are listed here; reply with one: 1 (active), 0 (inactive)

molecule: C[C@](N)(Cc1ccc(O)c(O)c1)C(=O)O
class: 0

Request: Call for entry `Oc1ccc2c(c1)-c1ccccc1C2` :
Result: 1

Request: Call for entry `CCOCCOCCOCCO` :
Result: 0

Request: Call for entry `COc1cccc(-c2ccc(/C=C\CN3CCCCCC3)cc2Cl)c1` :
Result: 1

Request: Call for entry `CC(C)CCCCCCOC(=O)c1ccc(C(=O)OCCCCCCC(C)C)c(C(=O)OCCCCCCC(C)C)c1` :
Result: 0

Request: Call for entry `CNCc1ccc(NC(=O)c2c[nH]c3c2C(=O)CCC3)cc1` :
Result: 0

Request: Call for entry O=C1CCC(N2C(=O)c3ccccc3C2=O)C(=O)N1 (configuration not stated) :
Result: 0

Request: Call for entry `CC(C)=CCCC(C)=CC=O` :
Result: 0

Request: Call for entry `CCOc1cccc(-n2cc(C(=O)N3CCN(c4cc(C(=O)O)c5ccccc5c4)CC3)nc2-c2ccc(C)cc2)c1` :
Result: 1

---

Test: APR_HepG2_P-H2AX_72hr: Apredica 72-hour HepG2 Assay for H2AX Phosphorylation (AID 2282916);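 further: phospho-histone H2A.x immunostain intensity per cell marking DNA damage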
Conditions: imaging, actives raise or lower the signal
Procedure: APR_HepG2_72hr is a cell-based, multiplexed-readout assay that uses HepG2, a human liver cell line, with measurements taken at 72 hours after chemical dosing in a 384-well plate.APR_HepG2_P-H2AX_72hr is one of 10 assay component(s) measured or calculated from the APR_HepG2_72hr assay. […] This assay endpoint, APR_HepG2_P-H2AX_72hr, was analyzed with bidirectional fitting relative to DMSO as the negative control and baseline of activity. […]
The source made the active and inactive calls. How the source made its calls: active means hit-call score of the fitted dose curve at least 0.9, where 1 is the maximum; inactive means score below 0.9.
Valid outcomes are listed here; reply with one: TRUE = active, FALSE = inactive

Use the examples below as a reference point.
compound: CCOCCO
class: FALSE

compound: CCOC(=O)c1ccc(C2CCC(NC[C@H](O)COc3ccc(O)c(NS(C)(=O)=O)c3)CC2)cc1 (stereo partly specified)
class: TRUE

compound: O=C1CCC(N2C(=O)c3ccccc3C2=O)C(=O)N1 (stereo unspecified)
class: FALSE

compound: C1=CCCC=CCCC=CCC1
class: FALSE

compound: CC(C)CC(C)(O)C#CC(C)(O)CC(C)C (stereo unspecified)
class: FALSE

compound: COc1ccc2sc(C(=O)Nc3nnn[nH]3)c(OC(C)C)c2c1
class: FALSE

compound: O=C1CCCCCN1
class: FALSE

compound: Nc1nc2ncc(CNc3ccc(C(=O)N[C@@H](CCC(=O)O)C(=O)O)cc3)nc2c(=O)[nH]1
class: FALSE

Request: Call for entry CCCCC(CC)COC(=O)c1ccc(C(=O)OCC(CC)CCCC)cc1 (stereo unspecified) :
Result: TRUE

Request: Call for entry O=C1OC(=O)C2C3C=CC(C3)C12 (stereo unspecified) :
Result: FALSE

Request: Call for entry `COC(=O)c1ccccc1O` :
Result: FALSE
